- target: HTRA1
- runParameters: ASO, U251, 5 µM
After the bases stand the sugars from the 5' end (letter, count) and the backbone: PS all phosphorothioate, else s phosphorothioate and o phosphodiester by linkage. Methylation of C is not given here. l = locked nucleic acid (LNA); d = 2'-deoxy (DNA)
Catalogue of sequences with associated target mRNA inhibition
measuredAttribute: target mRNA inhibition (%)

>>> reportedmeasurement("CTTCTTCTATCTACGCAT (sugars l4 d12 l2, PS)")
86
>>> reportedmeasurement("TTGTATCGACTGCATTAGTT (sugars l3 d15 l2, PS)")
58
>>> reportedmeasurement("TTCTTCTATCTACGCAT (sugars l4 d10 l3, PS)")
85
>>> reportedmeasurement("AGAAGTACTTTAATAGCTC (sugars l4 d12 l3, PS)")
84
>>> reportedmeasurement("TTCTATCTACGCATTGT (sugars l3 d11 l3, PS)")
83
>>> reportedmeasurement("GTATCGACTGCATTAGT (sugars l4 d11 l2, PS)")
84
>>> reportedmeasurement("AATGTGTAAGAAGTAC (sugars l4 d8 l4, PS)")
83
>>> reportedmeasurement("GAAGTACTTTAATAGCT (sugars l4 d9 l4, PS)")
47
>>> reportedmeasurement("ATGTGTAAGAAGTACTT (sugars l4 d9 l4, PS)")
34
>>> reportedmeasurement("ATTGTATCGACTGCAT (sugars l4 d8 l4, PS)")
83
>>> reportedmeasurement("CTTCTTCTATCTACGCA (sugars l4 d11 l2, PS)")
87
